FYI, the data here is from patent US10947213B1.

target: TLR7/NFKb HEK cells (Homo sapiens, UniProt Q9NYK1); experiment: HEK Cell Assay (TLR7/NFKb reporter, Steady-Glo luciferase readout); settings: 30 min compound preincubation, then R*48 agonist for 5 hours, read-out: Potency
Sequence (Q9NYK1 27-1049): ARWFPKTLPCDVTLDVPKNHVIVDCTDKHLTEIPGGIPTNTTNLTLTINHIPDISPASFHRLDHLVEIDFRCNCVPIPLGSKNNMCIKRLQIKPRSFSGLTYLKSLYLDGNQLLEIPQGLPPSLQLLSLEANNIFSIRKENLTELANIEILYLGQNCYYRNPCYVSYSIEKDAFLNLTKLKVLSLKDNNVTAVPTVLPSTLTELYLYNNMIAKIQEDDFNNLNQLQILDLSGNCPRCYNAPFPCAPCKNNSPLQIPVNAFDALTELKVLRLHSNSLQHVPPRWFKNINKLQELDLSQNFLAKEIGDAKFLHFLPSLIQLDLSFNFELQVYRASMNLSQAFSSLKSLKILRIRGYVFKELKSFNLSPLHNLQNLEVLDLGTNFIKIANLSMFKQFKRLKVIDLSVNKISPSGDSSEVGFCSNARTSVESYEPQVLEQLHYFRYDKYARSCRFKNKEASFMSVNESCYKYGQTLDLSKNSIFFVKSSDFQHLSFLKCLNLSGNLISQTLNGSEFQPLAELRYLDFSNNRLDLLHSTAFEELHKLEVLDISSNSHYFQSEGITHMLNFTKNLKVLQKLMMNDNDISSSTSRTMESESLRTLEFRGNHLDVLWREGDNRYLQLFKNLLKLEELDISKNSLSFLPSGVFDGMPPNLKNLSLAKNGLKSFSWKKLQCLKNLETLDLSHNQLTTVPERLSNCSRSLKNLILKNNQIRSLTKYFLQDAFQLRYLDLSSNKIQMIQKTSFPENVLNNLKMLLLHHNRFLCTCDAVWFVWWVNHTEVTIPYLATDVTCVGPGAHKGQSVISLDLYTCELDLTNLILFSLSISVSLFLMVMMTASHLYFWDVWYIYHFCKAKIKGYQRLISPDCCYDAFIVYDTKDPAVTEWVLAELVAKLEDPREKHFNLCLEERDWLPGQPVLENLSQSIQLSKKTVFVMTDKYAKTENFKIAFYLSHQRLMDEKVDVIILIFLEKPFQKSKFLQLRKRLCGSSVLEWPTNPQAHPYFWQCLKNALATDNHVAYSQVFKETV
pIC50: −log10 of the molar value.
observed-property: pIC50

compound="CN1CCC(N[C@H]2CN(c3ccc(C#N)c4nccnc34)CC(C)(C)C2)C1=O (stereo partly drawn) [Compound 219]" recorded_measurement="> 6.00"
compound="C[C@H]1C[C@@H](NC(=O)CC2CCCN(C)C2)CN(c2ccc(C(F)(F)F)c3nccnc23)C1 (stereo partly drawn) [Compound 293]" recorded_measurement="> 6.00"
compound="C[C@@H]1CN(c2ccnc3nccnc23)C[C@H](C)O1 [Compound 43]" recorded_measurement="< 5.00"

---

target: TLR7/NFKb HEK cells (Homo sapiens, UniProt Q9NYK1); assay: HEK Cell Assay (TLR7/NFKb reporter, Steady-Glo luciferase readout); conditions: 30 min compound preincubation, then R*48 agonist for 5 hours, read-out: Potency
pIC50: −log10 of the molar value.
observed-property: pIC50

molecule="CC(C(=O)N[C@@H]1C[C@H](C)CN(c2ccc(C(F)(F)F)c3ncccc23)C1)N1CC(N)C1 (stereo partly shown)" recorded_measurement="> 6.00"
molecule=C[C@H]1C[C@@H](N(C)C(=O)CN(C)C)CN(c2ccc(C(F)(F)F)c3ncccc23)C1 recorded_measurement="> 6.00"
molecule=C[C@H]1C[C@@H](NC(=O)[C@@H](N)c2ccccc2)CN(c2ccc(C#N)c3nccnc23)C1 recorded_measurement="> 6.00"
molecule="N#Cc1ccc(N2CC(N)CC(C(F)(F)F)C2)c2cccnc12 (single isomer, unassigned) [Compound 72]" recorded_measurement="> 6.00"
molecule=N#Cc1ccc(N2C[C@H](NC(=O)NCC3CC(F)(F)C3)C[C@H](C(F)(F)F)C2)c2cccnc12 recorded_measurement="5.00 to 6.00"
molecule=C[C@H]1C[C@@H](NC(=O)CN(C)C)CN(c2ccnc3nccnc23)C1 recorded_measurement="5.00 to 6.00"
molecule="CC(C(=O)N[C@@H]1C[C@H](C)CN(c2ccc(C#N)c3nccnc23)C1)N1CC(O)C1 (stereo partly shown)" recorded_measurement="> 6.00"

---

target: TLR7/NFKb HEK cells (Homo sapiens); experiment: HEK Cell Assay (TLR7/NFKb reporter, Steady-Glo luciferase readout); conditions: 30 min compound preincubation, then R*48 agonist for 5 hours, read-out: Potency
Where a name gives a salt, the structure may show the parent alone.
observed-property: IC50

molecule="C[C@H]1C[C@@H](NC(=O)CC2CCCN(C)C2)CN(c2ccc(C#N)c3nccnc23)C1 (stereo partly drawn) [Compound 266, hydrochloride]" recorded_measurement="< 1000 nM"
molecule="CC(C(=O)N[C@@H]1C[C@H](C)CN(c2ccc(C(F)F)c3nccnc23)C1)N1CCC(O)CC1 (stereo partly drawn) [Compound 325]" recorded_measurement="1000 to 10000 nM"
molecule="C[C@H]1C[C@@H](NCC(N)=O)CN(c2ccc(C#N)c3nccnc23)C1 [Compound 122]" recorded_measurement="< 1000 nM"

---

target: TLR7/NFKb HEK cells (Homo sapiens, UniProt Q9NYK1); assay: HEK Cell Assay (TLR7/NFKb reporter, Steady-Glo luciferase readout); conditions: 30 min compound preincubation, then R*48 agonist for 5 hours, read-out: Potency
Structures can show the parent of a compound that is named as a salt.
observed-property: IC50

compound=C[C@H]1C[C@@H](NC(=O)CN2CCCN(C)CC2)CN(c2ccc(C#N)c3nccnc23)C1 target_desc="TLR7/NFKb HEK cells (Homo sapiens, UniProt Q9NYK1)" recorded_measurement="< 1000 nM"
compound=C[C@H]1C[C@@H](NC2COC2)CN(c2ccc(C#N)c3nccnc23)C1 target_desc="TLR7/NFKb HEK cells (Homo sapiens, UniProt Q9NYK1)" recorded_measurement="< 1000 nM"
compound=C[C@H]1C[C@@H](NC(=O)[C@H](C)N)CN(c2ccc(C#N)c3nccnc23)C1 target_desc="TLR7/NFKb HEK cells (Homo sapiens, UniProt Q9NYK1)" recorded_measurement="< 1000 nM"
compound=C[C@H]1C[C@@H](NC(=O)CN2CC(O)C2)CN(c2ccc(C#N)c3nccnc23)C1 target_desc="TLR7/NFKb HEK cells (Homo sapiens, UniProt Q9NYK1)" recorded_measurement="< 1000 nM"
compound=C[C@H]1C[C@@H](NC(=O)CN(C)C)CN(c2ccc(C#N)c3nccnc23)C1 target_desc="TLR7/NFKb HEK cells (Homo sapiens, UniProt Q9NYK1)" recorded_measurement="< 1000 nM"
compound=O=C(CCCN1CCCCC1)N1CCN(c2ccnc3nccnc23)CC1 target_desc="TLR7/NFKb HEK cells (Homo sapiens, UniProt Q9NYK1)" recorded_measurement="> 10000 nM"
compound="O=C(N[C@@H]1CNC[C@@H]1F)C1CCN(c2ccc(C(F)(F)F)c3ncccc23)CC1 [Compound 464, hydrochloride]" target_desc="TLR7/NFKb HEK cells (Homo sapiens, UniProt Q9NYK1)" recorded_measurement="< 1000 nM"
compound="CC(C(=O)N[C@@H]1C[C@H](C)CN(c2ccc(C(F)(F)F)c3nccnc23)C1)N1CC(F)(F)C1 (stereo partly shown)" target_desc="TLR7/NFKb HEK cells (Homo sapiens, UniProt Q9NYK1)" recorded_measurement="1000 to 10000 nM"
compound="N#Cc1ccc(N2CC(NC(=O)CC3(N)CCCCC3)CC(C(F)(F)F)C2)c2cccnc12 (single isomer, unassigned) [Compound 497]" target_desc="TLR7/NFKb HEK cells (Homo sapiens, UniProt Q9NYK1)" recorded_measurement="< 1000 nM"
compound=CCN(CC)CCNCC1CCN(c2cc(C)nc3ccc(F)cc23)CC1 target_desc="TLR7/NFKb HEK cells (Homo sapiens, UniProt Q9NYK1)" recorded_measurement="1000 to 10000 nM"
compound=CCN(C)CC(=O)NCC1CCN(c2ccc(C#N)c3ncccc23)CC1 target_desc="TLR7/NFKb HEK cells (Homo sapiens, UniProt Q9NYK1)" recorded_measurement="< 1000 nM"
compound=COc1ccc(C(=O)NCC2CCN(c3ccnc4nccnc34)CC2)cc1OC target_desc="TLR7/NFKb HEK cells (Homo sapiens, UniProt Q9NYK1)" recorded_measurement="> 10000 nM"
compound=C[C@H]1C[C@@H](NC(=O)CC2CN(C)C2)CN(c2ccc(C#N)c3nccnc23)C1 target_desc="TLR7/NFKb HEK cells (Homo sapiens, UniProt Q9NYK1)" recorded_measurement="< 1000 nM"
compound=Cc1cc2c(N3C[C@@H](C)C[C@@H](N)C3)ccnc2n1C target_desc="TLR7/NFKb HEK cells (Homo sapiens, UniProt Q9NYK1)" recorded_measurement="> 10000 nM"
compound="CCC(C)CC(=O)N[C@@H]1C[C@H](C)CN(c2ccnc3nccnc23)C1 (single isomer, unassigned) [Compound 153]" target_desc="TLR7/NFKb HEK cells (Homo sapiens, UniProt Q9NYK1)" recorded_measurement="1000 to 10000 nM"
compound=O=C(CN1CCCCC1)NCC1CCN(c2ccnc3ccccc23)CC1 target_desc="TLR7/NFKb HEK cells (Homo sapiens, UniProt Q9NYK1)" recorded_measurement="1000 to 10000 nM"
